The entries below are paired with their reported Average EC50, clonogenic assay, primary human CD34+ cells.
Target: T1, human CD45 (human, UniProt P08575 26-1306)
T1 sequence: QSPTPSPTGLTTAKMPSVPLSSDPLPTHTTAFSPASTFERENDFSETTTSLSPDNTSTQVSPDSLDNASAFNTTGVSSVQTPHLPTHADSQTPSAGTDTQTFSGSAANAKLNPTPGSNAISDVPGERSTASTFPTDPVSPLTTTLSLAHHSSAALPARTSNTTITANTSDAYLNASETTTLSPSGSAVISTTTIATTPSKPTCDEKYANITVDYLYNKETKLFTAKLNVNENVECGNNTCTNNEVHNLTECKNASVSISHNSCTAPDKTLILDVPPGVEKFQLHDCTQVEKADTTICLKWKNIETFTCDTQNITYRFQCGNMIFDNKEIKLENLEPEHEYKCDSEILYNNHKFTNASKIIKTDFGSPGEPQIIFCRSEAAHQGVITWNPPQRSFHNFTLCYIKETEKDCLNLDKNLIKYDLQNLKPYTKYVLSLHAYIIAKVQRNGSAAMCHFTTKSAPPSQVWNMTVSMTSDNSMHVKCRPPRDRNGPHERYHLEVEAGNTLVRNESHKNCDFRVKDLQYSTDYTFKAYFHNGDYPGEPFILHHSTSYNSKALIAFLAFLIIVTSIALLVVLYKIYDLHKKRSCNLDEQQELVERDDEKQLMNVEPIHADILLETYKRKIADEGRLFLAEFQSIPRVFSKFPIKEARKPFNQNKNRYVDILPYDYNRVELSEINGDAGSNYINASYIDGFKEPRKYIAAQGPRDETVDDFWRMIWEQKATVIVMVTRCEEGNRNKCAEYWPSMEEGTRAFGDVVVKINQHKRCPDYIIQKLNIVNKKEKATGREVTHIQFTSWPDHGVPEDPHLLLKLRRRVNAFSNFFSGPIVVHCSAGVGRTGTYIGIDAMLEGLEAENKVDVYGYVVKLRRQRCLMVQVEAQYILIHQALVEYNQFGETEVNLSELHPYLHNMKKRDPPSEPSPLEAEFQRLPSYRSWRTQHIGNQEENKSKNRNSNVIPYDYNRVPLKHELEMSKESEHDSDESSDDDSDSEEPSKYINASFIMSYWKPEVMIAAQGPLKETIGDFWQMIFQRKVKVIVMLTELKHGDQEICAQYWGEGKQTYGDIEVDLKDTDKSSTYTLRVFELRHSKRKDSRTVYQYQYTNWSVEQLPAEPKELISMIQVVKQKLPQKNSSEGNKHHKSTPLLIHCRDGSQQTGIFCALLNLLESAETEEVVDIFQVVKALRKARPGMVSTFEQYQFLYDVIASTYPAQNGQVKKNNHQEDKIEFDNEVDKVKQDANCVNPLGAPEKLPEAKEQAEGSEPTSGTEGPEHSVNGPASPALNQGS
Test: cell-based or functional assay
ENDPOINT: Average EC50, clonogenic assay, primary human CD34+ cells (pM)

>  <BINDER>
YTH54.12-B7 (antibody, V domains shown, PBD drug-linker B7 conjugated; sites and DAR not stated) VH: EVQLVESGGGLVQPGGSMKLSCAASGFTFSDYYMAWVRQAPKKGLEWVASMSFAGSSTYYGDSVKGRFTISRDNAKTTLYLQMNSLRSEDTATYYCARMYTTDYYLYWYFDFWGPGTMVTVSS VL: DVQMTQSPSYLAASPGESVSISCKASKSISNYLAWYQQKPGEANKILIYSGSTLQSGTPSRFSGSGSGTDFSLTIRNLEPEDFAVYYCQQYDEKPLTFGSGTKLEIKR

>  <RESULT NUMBER>
45.1

$$$$
>  <BINDER>
YTH24.5-rat IgG2b-PBD (drug-linker B1) (antibody, V domains shown, PBD dimer drug-linker B1; light chains unconjugated or attached to a single molecule of B1; sites not given; PBD dimer drug-linker B1 conjugated after TCEP reduction; heavy chains attached to up to five molecules of B1; sites not given; DAR 1.94 (preparation) / 2.00) VH: QVNLLQSGAALVKPGASVKLSCKASSYTFTDYYIHWVKQSHGKTLEWIGYINPKSGFTNYNEKFRRKATLTVDKSTNTAYMDISRLTSEDSATYYCTRRTGVIPMDAWGQGASVTVSS VL: DVVMTQTPVSLSVSLGGQVSISCRSSQSFVSSDGNTYLNWYLQKPGQSPQLLIYKVSNRLSGVPDRFSGSGSGTDFTLKISRVEHDDLGVYYCGQASKIPLTFGSGTKLEIKR

>  <RESULT NUMBER>
2.64

$$$$
>  <BINDER>
YTH54.12-rat IgG2b-PBD (drug-linker B1) (antibody, V domains shown, PBD dimer drug-linker B1; light chains unconjugated or attached to a single molecule of B1; sites not given; PBD dimer drug-linker B1 conjugated after TCEP reduction; heavy chains attached to up to five molecules of B1; sites not given; DAR 1.90 (preparation) / 2.00) VH: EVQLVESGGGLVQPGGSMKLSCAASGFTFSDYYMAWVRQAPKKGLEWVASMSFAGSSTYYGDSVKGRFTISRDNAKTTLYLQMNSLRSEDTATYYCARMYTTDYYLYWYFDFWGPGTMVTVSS VL: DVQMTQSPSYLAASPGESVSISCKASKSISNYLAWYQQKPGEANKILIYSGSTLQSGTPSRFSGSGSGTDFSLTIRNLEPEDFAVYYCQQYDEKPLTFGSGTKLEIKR

>  <RESULT NUMBER>
1.52

$$$$
>  <BINDER>
YTH54.12-B4 (antibody, V domains shown, PBD drug-linker B4 (non-cleavable) conjugated; sites and DAR not stated) VH: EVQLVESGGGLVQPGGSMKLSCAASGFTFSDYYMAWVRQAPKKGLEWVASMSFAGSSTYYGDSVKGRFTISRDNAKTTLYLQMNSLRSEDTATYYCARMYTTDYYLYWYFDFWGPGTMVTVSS VL: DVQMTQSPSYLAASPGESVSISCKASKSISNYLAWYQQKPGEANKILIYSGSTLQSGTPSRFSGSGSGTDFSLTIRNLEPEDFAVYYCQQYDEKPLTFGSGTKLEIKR

>  <RESULT NUMBER>
4.47

$$$$
